molecular target: T1, human CD4 on cells (SKW3 cells; human PBMCs) (human, UniProt P01730 26-458); experiment: FACS confirmation, supernatant on human PBMCs, anti-mFc 647, CD4+ gate
T1 construct: whole, on cells; SKW3 CD4 knockout cells served as the negative cell line for the WT vs KO ratios; also called hCD4; SKW3 WT
RESULT_TYPE: CD4+ gate RL1 Binding

• 75110_04H17A (antibody, V domains shown, Tested as non-clonal hybridoma supernatant (AlivaMab Mouse Kappa), detected with anti-mouse Fc and anti-human kappa) VH: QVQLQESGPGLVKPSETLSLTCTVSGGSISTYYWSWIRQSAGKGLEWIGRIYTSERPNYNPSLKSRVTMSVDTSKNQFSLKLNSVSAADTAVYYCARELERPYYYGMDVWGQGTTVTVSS VL: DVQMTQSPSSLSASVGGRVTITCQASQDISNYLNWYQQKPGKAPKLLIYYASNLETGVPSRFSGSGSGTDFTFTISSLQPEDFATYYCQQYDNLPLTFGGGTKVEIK = 302000
• 75110_02E22A (antibody, V domains shown, Tested as non-clonal hybridoma supernatant (AlivaMab Mouse Kappa), detected with anti-mouse Fc and anti-human kappa) VH: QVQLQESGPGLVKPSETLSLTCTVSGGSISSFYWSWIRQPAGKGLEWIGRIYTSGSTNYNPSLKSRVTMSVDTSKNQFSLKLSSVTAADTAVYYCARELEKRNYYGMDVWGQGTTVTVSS VL: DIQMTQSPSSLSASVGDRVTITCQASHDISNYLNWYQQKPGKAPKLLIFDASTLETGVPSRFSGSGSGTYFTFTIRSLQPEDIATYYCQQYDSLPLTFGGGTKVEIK = 276000
• 75110_07J24A (antibody, V domains shown, Tested as non-clonal hybridoma supernatant (AlivaMab Mouse Kappa), detected with anti-mouse Fc and anti-human kappa) VH: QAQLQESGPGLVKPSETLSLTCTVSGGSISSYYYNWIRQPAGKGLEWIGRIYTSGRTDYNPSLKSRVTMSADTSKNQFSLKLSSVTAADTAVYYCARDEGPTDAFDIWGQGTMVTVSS VL: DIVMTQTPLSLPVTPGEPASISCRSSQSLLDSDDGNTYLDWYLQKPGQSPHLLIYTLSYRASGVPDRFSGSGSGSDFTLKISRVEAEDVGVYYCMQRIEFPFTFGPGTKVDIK = 234000
• 75110_01C18A (antibody, V domains shown, Tested as non-clonal hybridoma supernatant (AlivaMab Mouse Kappa), detected with anti-mouse Fc and anti-human kappa) VH: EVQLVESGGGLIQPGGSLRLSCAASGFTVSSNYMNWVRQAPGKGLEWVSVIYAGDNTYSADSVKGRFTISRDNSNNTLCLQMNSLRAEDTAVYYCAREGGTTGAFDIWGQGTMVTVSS VL: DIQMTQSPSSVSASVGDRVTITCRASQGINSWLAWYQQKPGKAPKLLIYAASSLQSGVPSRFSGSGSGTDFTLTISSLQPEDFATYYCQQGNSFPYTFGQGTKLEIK = 308000
• 75110_05E13A (antibody, V domains shown, Tested as non-clonal hybridoma supernatant (AlivaMab Mouse Kappa), detected with anti-mouse Fc and anti-human kappa) VH: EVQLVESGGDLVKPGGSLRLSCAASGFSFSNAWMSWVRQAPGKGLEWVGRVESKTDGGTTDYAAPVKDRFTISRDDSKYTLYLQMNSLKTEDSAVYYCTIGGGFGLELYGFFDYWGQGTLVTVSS VL: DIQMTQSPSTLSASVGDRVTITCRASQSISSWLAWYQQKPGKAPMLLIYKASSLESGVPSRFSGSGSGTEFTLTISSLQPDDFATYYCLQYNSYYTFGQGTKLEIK = 231000
• 75110_08A13A (antibody, V domains shown, Tested as non-clonal hybridoma supernatant (AlivaMab Mouse Kappa), detected with anti-mouse Fc and anti-human kappa) VH: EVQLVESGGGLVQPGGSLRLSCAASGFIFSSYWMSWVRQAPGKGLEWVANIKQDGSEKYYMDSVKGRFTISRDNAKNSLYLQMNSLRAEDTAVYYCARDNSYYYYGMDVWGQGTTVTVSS VL: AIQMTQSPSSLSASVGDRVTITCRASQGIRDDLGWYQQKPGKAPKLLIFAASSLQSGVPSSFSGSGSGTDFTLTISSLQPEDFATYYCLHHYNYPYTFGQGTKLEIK = 258000
• 75110_05E05A (antibody, V domains shown, Tested as non-clonal hybridoma supernatant (AlivaMab Mouse Kappa), detected with anti-mouse Fc and anti-human kappa) VH: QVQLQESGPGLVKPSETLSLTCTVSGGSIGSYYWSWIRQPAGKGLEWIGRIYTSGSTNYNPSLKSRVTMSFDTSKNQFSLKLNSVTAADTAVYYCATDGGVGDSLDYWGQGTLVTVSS VL: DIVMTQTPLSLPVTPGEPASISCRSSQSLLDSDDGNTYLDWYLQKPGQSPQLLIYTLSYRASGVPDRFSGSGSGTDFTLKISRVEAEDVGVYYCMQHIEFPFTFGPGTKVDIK = 227000
